# Test system: E. coli M 50
# method.summary: MIC, agar dilution (MHA), compound alone
# Assay type: cell-based
# test.settings: Escherichia coli, M50; E. coli M 50; compound alone; MHA, 35° C., 18 hours; read-out: MIC
measured.parameter: MIC (µg/mL)
Quick reminder: number only, in µg/mL, skip the unit.

Check out these entries, answers already filled in.
compound	MIC (µg/mL)
C[C@@H](C(=O)NNC(=O)[C@@H]1CC[C@@H]2CN1C(=O)N2OS(=O)(=O)[O-])n1ccnc1.[Na+] [Example 20]	0.5
NCCCc1nnn(CC(=O)NNC(=O)[C@@H]2CC[C@@H]3CN2C(=O)N3OS(=O)(=O)O)n1 [Example 30]	0.5
NCc1nnn(CC(=O)NNC(=O)[C@@H]2CC[C@@H]3CN2C(=O)N3OS(=O)(=O)O)n1 [Example 26]	0.5

Continue with the next compound.
Incoming: Quick check: MIC of O=C(Cn1nnc(CCO)n1)NNC(=O)[C@@H]1CC[C@@H]2CN1C(=O)N2OS(=O)(=O)[O-].[Na+] [Example 39] ?
Outgoing: 0.5

* * *

# System: E. coli M 50
# method.summary: MIC, agar dilution (MHA), compound alone
# Format: cell-based
# test.settings: Escherichia coli, M50; E. coli M 50; compound alone; MHA, 35° C., 18 hours; read-out: MIC
# Excerpt: The biological activity of representative compounds according to the invention against various bacterial strains was investigated. […]
measured.parameter: MIC (µg/mL)
Quick reminder: number only, in µg/mL, skip the unit.

mol	measured.target	unit.of.measurement	MIC
Nc1nnnn1CC(=O)NNC(=O)[C@@H]1CC[C@@H]2CN1C(=O)N2OS(=O)(=O)O	E. coli M 50	µg/mL	0.5

Incoming: Quick check: MIC of NCc1nnnn1CC(=O)NNC(=O)[C@@H]1CC[C@@H]2CN1C(=O)N2OS(=O)(=O)O ?
Outgoing: 0.5

Incoming: Quick check: MIC of O=C(NOCCn1cnnn1)[C@@H]1CC[C@@H]2CN1C(=O)N2OS(=O)(=O)[O-].[Na+] ?
Outgoing: 4

Incoming: Quick check: MIC of NC(=O)Cc1nnnn1CC(=O)NNC(=O)[C@@H]1CC[C@@H]2CN1C(=O)N2OS(=O)(=O)[O-].[Na+] ?
Outgoing: 0.5

Incoming: Quick check: MIC of C[C@H](N)C(=O)OCc1nccn1CC(=O)NNC(=O)[C@@H]1CC[C@@H]2CN1C(=O)N2OS(=O)(=O)O ?
Outgoing: 1

Incoming: Quick check: MIC of O=C(NOCCn1nnnc1CCO)[C@@H]1CC[C@@H]2CN1C(=O)N2OS(=O)(=O)[O-].[Na+] ?
Outgoing: 4

Incoming: Quick check: MIC of O=C(Cn1ncnn1)NNC(=O)[C@@H]1CC[C@@H]2CN1C(=O)N2OS(=O)(=O)[O-].[Na+] ?
Outgoing: 0.5

* * *

# Tested on: E. coli M 50
# method.summary: MIC, agar dilution (MHA), compound alone
# Type: cell-based
# test.settings: Escherichia coli, M50; E. coli M 50; compound alone; MHA, 35° C., 18 hours; read-out: MIC
measured.parameter: MIC (µg/mL)
Quick reminder: number only, in µg/mL, skip the unit.

Check out these entries, answers already filled in.
mol	measured.parameter	recorded.measurement
NC(=O)c1nnn(CC(=O)NNC(=O)[C@@H]2CC[C@@H]3CN2C(=O)N3OS(=O)(=O)[O-])n1.[Na+]	MIC	1
O=C(Cn1ccnc1CO)NNC(=O)[C@@H]1CC[C@@H]2CN1C(=O)N2OS(=O)(=O)[O-].[Na+]	MIC	0.5
O=C(Cn1cncn1)NNC(=O)[C@@H]1CC[C@@H]2CN1C(=O)N2OS(=O)(=O)[O-].[Na+]	MIC	0.5
O=C(NOCCn1ncnn1)[C@@H]1CC[C@@H]2CN1C(=O)N2OS(=O)(=O)[O-].[Na+]	MIC	8
O=C(Cn1ccnn1)NNC(=O)[C@@H]1CC[C@@H]2CN1C(=O)N2OS(=O)(=O)[O-].[Na+]	MIC	0.5

Continue with the next molecule.
Incoming: Quick check: MIC of NCCCCc1nnn(CC(=O)NNC(=O)[C@@H]2CC[C@@H]3CN2C(=O)N3OS(=O)(=O)O)n1 ?
Outgoing: 0.5

* * *

# System: E. coli NCTC 13352
# method.summary: MIC, agar dilution (MHA), compound alone
# Type: cell-based
# test.settings: Escherichia coli, NCTC13352; E. coli NCTC 13352; compound alone; MHA, 35° C., 18 hours; read-out: MIC
measured.parameter: MIC (µg/mL)
Quick reminder: number only, in µg/mL, skip the unit.

Incoming: Quick check: MIC of NCCCc1nnnn1CC(=O)NNC(=O)[C@@H]1CC[C@@H]2CN1C(=O)N2OS(=O)(=O)O [Example 31] ?
Outgoing: 0.5

* * *

# Tested on: E. coli M 50
# method.summary: MIC, agar dilution (MHA), compound alone
# Assay type: cell-based
# test.settings: Escherichia coli, M50; E. coli M 50; compound alone; MHA, 35° C., 18 hours; read-out: MIC
measured.parameter: MIC (µg/mL)
Quick reminder: number only, in µg/mL, skip the unit.

Check out these entries, answers already filled in.
compound	measured.target	MIC / µg/mL
O=C(NOCCn1cncn1)[C@@H]1CC[C@@H]2CN1C(=O)N2OS(=O)(=O)O [Example 48]	E. coli M 50	8
Cc1nnnn1CC(=O)NNC(=O)[C@@H]1CC[C@@H]2CN1C(=O)N2OS(=O)(=O)[O-].[Na+] [Example 9]	E. coli M 50	0.25
O=C(Cn1cccc1)NNC(=O)[C@@H]1CC[C@@H]2CN1C(=O)N2OS(=O)(=O)[O-].[Na+] [Example 18]	E. coli M 50	0.5
CCOC(=O)c1nccn1CC(=O)NNC(=O)[C@@H]1CC[C@@H]2CN1C(=O)N2OS(=O)(=O)[O-].[Na+] [Example 21]	E. coli M 50	2
NCCc1nnn(CCONC(=O)[C@@H]2CC[C@@H]3CN2C(=O)N3OS(=O)(=O)O)n1 [Example 46]	E. coli M 50	4
O=C(Cn1ccnc1CCO)NNC(=O)[C@@H]1CC[C@@H]2CN1C(=O)N2OS(=O)(=O)[O-].[Na+] [Example 40]	E. coli M 50	2
O=C(NOCCn1nnc(CCO)n1)[C@@H]1CC[C@@H]2CN1C(=O)N2OS(=O)(=O)[O-].[Na+] [Example 55]	E. coli M 50	16
NC(=O)Cc1nnn(CC(=O)NNC(=O)[C@@H]2CC[C@@H]3CN2C(=O)N3OS(=O)(=O)[O-])n1.[Na+] [Example 14]	E. coli M 50	0.5
NCCCc1nnnn1CC(=O)NNC(=O)[C@@H]1CC[C@@H]2CN1C(=O)N2OS(=O)(=O)O [Example 31]	E. coli M 50	0.5
NC(=O)c1nnnn1CC(=O)NNC(=O)[C@@H]1CC[C@@H]2CN1C(=O)N2OS(=O)(=O)[O-].[Na+] [Example 17]	E. coli M 50	0.25

Incoming: Quick check: MIC of CCOC(=O)Cc1nnnn1CC(=O)NNC(=O)[C@@H]1CC[C@@H]2CN1C(=O)N2OS(=O)(=O)[O-].[Na+] [Example 12] ?
Outgoing: 2

Incoming: Quick check: MIC of O=C(Cn1ccnc1COC(=O)[C@@H]1CCCN1)NNC(=O)[C@@H]1CC[C@@H]2CN1C(=O)N2OS(=O)(=O)O [Example 34] ?
Outgoing: 1

Incoming: Quick check: MIC of O=C(NOCCn1ccnn1)[C@@H]1CC[C@@H]2CN1C(=O)N2OS(=O)(=O)O [Example 47] ?
Outgoing: 8

Incoming: Quick check: MIC of NCCc1nnn(CC(=O)NNC(=O)[C@@H]2CC[C@@H]3CN2C(=O)N3OS(=O)(=O)O)n1 [Example 28] ?
Outgoing: 0.25

* * *

# System: E. coli NCTC 13352
# method.summary: MIC, agar dilution (MHA), compound alone
# Format: cell-based
# test.settings: Escherichia coli, NCTC13352; E. coli NCTC 13352; compound alone; MHA, 35° C., 18 hours; read-out: MIC
measured.parameter: MIC (µg/mL)
Quick reminder: number only, in µg/mL, skip the unit.

compound	measured.target	MIC, µg/mL
O=C(Cn1cncn1)NNC(=O)[C@@H]1CC[C@@H]2CN1C(=O)N2OS(=O)(=O)[O-].[Na+] [Example 8]	E. coli NCTC 13352	0.5
Cc1nnnn1CC(=O)NNC(=O)[C@@H]1CC[C@@H]2CN1C(=O)N2OS(=O)(=O)[O-].[Na+] [Example 9]	E. coli NCTC 13352	0.5
CCOC(=O)Cc1nnnn1CC(=O)NNC(=O)[C@@H]1CC[C@@H]2CN1C(=O)N2OS(=O)(=O)[O-].[Na+] [Example 12]	E. coli NCTC 13352	0.5
NCCc1nnn(CC(=O)NNC(=O)[C@@H]2CC[C@@H]3CN2C(=O)N3OS(=O)(=O)O)n1 [Example 28]	E. coli NCTC 13352	0.5
O=C(Cn1cccn1)NNC(=O)[C@@H]1CC[C@@H]2CN1C(=O)N2OS(=O)(=O)[O-].[Na+] [Example 11]	E. coli NCTC 13352	1
Nc1ncn(CC(=O)NNC(=O)[C@@H]2CC[C@@H]3CN2C(=O)N3OS(=O)(=O)O)n1 [Example 27]	E. coli NCTC 13352	1
NC(=O)Cc1nnn(CC(=O)NNC(=O)[C@@H]2CC[C@@H]3CN2C(=O)N3OS(=O)(=O)[O-])n1.[Na+] [Example 14]	E. coli NCTC 13352	1
O=C(Cn1nnc(CCO)n1)NNC(=O)[C@@H]1CC[C@@H]2CN1C(=O)N2OS(=O)(=O)[O-].[Na+] [Example 39]	E. coli NCTC 13352	0.5

Incoming: Quick check: MIC of NCc1nnnn1CC(=O)NNC(=O)[C@@H]1CC[C@@H]2CN1C(=O)N2OS(=O)(=O)O [Example 25] ?
Outgoing: 1

Incoming: Quick check: MIC of O=C(Cn1ncnn1)NNC(=O)[C@@H]1CC[C@@H]2CN1C(=O)N2OS(=O)(=O)[O-].[Na+] [Example 4] ?
Outgoing: 0.5

Incoming: Quick check: MIC of NCCc1nnn(CCONC(=O)[C@@H]2CC[C@@H]3CN2C(=O)N3OS(=O)(=O)O)n1 [Example 46] ?
Outgoing: 8
